# SYSTEM UNDER TEST: T1, synthetic peptide S155 of the RAGE V-domain (amino acids 39-65) (human)
# T1 construct: injected as analyte in SPR; also called RAGE synthetic peptide
# T1 peptide: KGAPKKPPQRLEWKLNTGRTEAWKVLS
# PROTOCOL DETAILS: SPR (Biacore T200), antibody amine-coupled to a CM5 chip as ligand, RAGE peptide S155 (BioRad) as analyte, multi-cycle kinetics, 1:1 fit; 'No steady state.'

BINDER: murine CG7 (mCG7) anti-RAGE monoclonal antibody (antibody, V domains shown, Murine hybridoma antibody) VH: QVQLKQSGPGLVQPSQSLSITCTVSGFSLTNYGVHWVRQSPGKGLEWLGVIWTGGNTDYNAAFISRLSITKDNSKSQVFFKMNSLQANDTAIYYCARNLRGGYYGAWFAYWGQGTLVTVSA VL: DVVMTQTPLSLPVSLGDQASISCRSSQTLVHSNGNTYLHWYLQKPGQSPKLLIYKVSNRFSGVPDRFTGSGSGTDFTLKISRVEAEDLGVYFCSQSTHVPPLTFGAGTKLELK
Kd: 0.296 µM
//
BINDER: murine HA9 (mHA9) anti-RAGE monoclonal antibody (antibody, V domains shown, Murine hybridoma antibody, purified on protein G; also called HA9 clone) VH: EVKLVETGGGLVQPGRPMKLSCVASGFTLSDHWMNWVRQSPEKGLEWVAQIRNRPYKFEKYYSDSVKGRFTISRDDSKNSVYLQMNNLRAEDMGIYYCSSYRYGLAYWGQGTLVTVST VL: DNLLTQSPAILSVSPGERVSFSCRASQTIDTRIHWYQQRKNGSPRLLIRYISESLSGIPSRFSGSGSGTEFTLTINSVESEDIADYYCQQTESWPITFGSGTKLEIK
Kd: 0.72 µM
//
BINDER: murine BG7 anti-RAGE monoclonal antibody (antibody, V domains shown, Murine hybridoma antibody) VH: EVKLDETGGGLVQPGRPMKLSCIASGFTLSDYWMNWVRQSPEKGLEWVAQIRNRPYNFETLYSDSVKGRFIISRDDSKNSVYLQMDNLGPDDSGIYYCSSYRYGLAYWGQGTLVTVSA VL: DILLTQSPAILSVSPGERVSISCRASQTIDKRIHWYQQRTNGSPRLLIKYMSESISGTPSRFSGSGSGTDFTLTINSVESEDIAVYYCQQTNYWPITFGSGTKLELK
Kd: 0.41 µM
//
BINDER: murine IG7 anti-RAGE monoclonal antibody (antibody, V domains shown, Same VH and VL as BG7; also called ID7) VH: EVKLDETGGGLVQPGRPMKLSCIASGFTLSDYWMNWVRQSPEKGLEWVAQIRNRPYNFETLYSDSVKGRFIISRDDSKNSVYLQMDNLGPDDSGIYYCSSYRYGLAYWGQGTLVTVSA VL: DILLTQSPAILSVSPGERVSISCRASQTIDKRIHWYQQRTNGSPRLLIKYMSESISGTPSRFSGSGSGTDFTLTINSVESEDIAVYYCQQTNYWPITFGSGTKLELK
Kd: 0.86 µM
